Origin of measurements: PubChem BioAssay

- ASSAY NAME: inhibitors of hydroxyurea-induced Chk1 phosphorylation, primary screen, imaging, HeLa, phospho-Chk1 antibody, percent positive cells (AID 1186)
- MEASUREMENT PARAMETERS: hydroxyurea-induced phospho-Chk1 immunofluorescence imaging, higher = more signal

>  <COMPOUND>
[N-]=[N+]=NCc1ccccc1C[C@]1(C(=O)O)COC(c2ccc(OCCCO)cc2)=N1

>  <z-score>
0.0203

$$$$
>  <COMPOUND>
CN(C)CCCC[C@@H]1NC(=O)[C@@H]2C[C@H](C(=O)NCc3ccc(F)cc3)[C@H](c3ccc(O)cc3)N2C1=O

>  <z-score>
0.336

$$$$
>  <COMPOUND>
COc1ccc([Si](C)(C)[C@H]2[C@H](CCO)O[C@@]3(C(=O)N(Cc4ccccc4)c4ccc(N(C=O)c5ccccc5)cc43)[C@@H]2C)cc1

>  <z-score>
1.75

$$$$
>  <COMPOUND>
[N-]=[N+]=NCc1ccccc1C[C@]1(C(=O)NCc2ccccc2)N=C(c2ccc(OCCCO)cc2)O[C@H]1c1ccccc1CN=[N+]=[N-]

>  <z-score>
-0.347

$$$$
>  <COMPOUND>
COC(=O)[C@H](Cc1ccc(O)cc1)N1CC2=CCCC=C[C@@H]2[C@H]1[C@H](O)Cc1ccccc1

>  <z-score>
-1.09

$$$$
>  <COMPOUND>
COC(=O)c1c(CC[C@@H](CO)NC(=O)N[C@@H](Cc2ccccc2)Cn2cc(-c3cncn3C)nn2)oc(C(C)=O)c1C(=O)OC

>  <z-score>
-0.331

$$$$
>  <COMPOUND>
CC[C@H](C)C(=O)O[C@H]1CC[C@]2(C)C3=C(CCC2C1(C)C)[C@]1(C)CC[C@H]([C@H](C)CCCC(C)C)[C@@]1(C)CC3 (stereo partly drawn)

>  <z-score>
-0.719

$$$$
>  <COMPOUND>
Cc1c(NC(=O)/C(C#N)=C/c2ccc(Cl)cc2)c(=O)n(-c2ccccc2)n1C

>  <z-score>
-0.0496

$$$$

----------
Listing of recorded composite z-score by entry.
- ASSAY TARGET: Torsin-1A-interacting protein 2 (Homo sapiens) (UniProt Q8NFQ8)
- Sequence (Q8NFQ8 whole entry, looked up): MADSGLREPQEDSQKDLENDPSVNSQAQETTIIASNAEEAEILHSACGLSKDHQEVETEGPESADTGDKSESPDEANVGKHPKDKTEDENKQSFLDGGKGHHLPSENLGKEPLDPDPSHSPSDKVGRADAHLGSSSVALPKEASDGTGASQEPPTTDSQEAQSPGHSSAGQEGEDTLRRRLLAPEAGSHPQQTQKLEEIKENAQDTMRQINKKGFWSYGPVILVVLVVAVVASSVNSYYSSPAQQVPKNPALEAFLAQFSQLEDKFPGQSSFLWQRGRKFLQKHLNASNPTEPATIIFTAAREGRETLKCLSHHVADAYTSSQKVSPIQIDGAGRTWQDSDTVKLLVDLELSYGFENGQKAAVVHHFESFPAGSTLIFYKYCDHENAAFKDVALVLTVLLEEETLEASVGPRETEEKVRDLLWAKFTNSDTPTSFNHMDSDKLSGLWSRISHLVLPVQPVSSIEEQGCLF
- ASSAY NAME: LULL1 binders on small-molecule microarray, primary screen, cell lysate, human LULL1 lysate, 635/667 nm fluorescence (AID 1092);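 also: probe is lysate of COS7 cells overexpressing human LULL1; score merges per-feature 667 nm fluorescence with signal-to-noise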
- MEASUREMENT PARAMETERS: hLULL1 lysate binding, 635 nm fluorescence, higher = more signal

>  <COMPOUND>
[N-]=[N+]=NCc1ccccc1C[C@@]1(C(=O)O)N=C(c2ccc(OCCCO)cc2)O[C@@H]1c1ccccc1CN=[N+]=[N-]

>  <ASSAY TARGET>
Torsin-1A-interacting protein 2 (Homo sapiens) (UniProt Q8NFQ8)

>  <composite z-score>
1.59

$$$$
>  <COMPOUND>
COC(=O)[C@@]1(Cc2ccccc2)[C@@H]2[C@@H](CC(=O)[C@H]2CC(=O)C(=O)N(C)C)CN1C(=O)c1ccccc1

>  <ASSAY TARGET>
Torsin-1A-interacting protein 2 (Homo sapiens) (UniProt Q8NFQ8)

>  <composite z-score>
3.34

$$$$
>  <COMPOUND>
C=CCC(OC(C)=O)[C@@H]1[C@@H](N(Cc2ccc(-c3cccc(C(F)(F)F)c3)o2)C(=O)Cc2ccc(F)cc2)c2cc(OCCCO)ccc2N1C(=O)c1ccc2ccccc2n1 (some centres undefined)

>  <ASSAY TARGET>
Torsin-1A-interacting protein 2 (Homo sapiens) (UniProt Q8NFQ8)

>  <composite z-score>
-0.452

$$$$
>  <COMPOUND>
COC(=O)[C@]1(CO)N=C(c2ccc(OCCCO)cc2)O[C@@H]1c1ccccc1CN=[N+]=[N-]

>  <ASSAY TARGET>
Torsin-1A-interacting protein 2 (Homo sapiens) (UniProt Q8NFQ8)

>  <composite z-score>
0.852

$$$$
>  <COMPOUND>
COCCOC(=O)N1C(=O)[C@@]2(c3cc(C#CC4=CCCCC4)ccc31)[C@H](c1ccccc1OCCO)N1[C@H](c3ccccc3)[C@H](c3ccccc3)OC(=O)[C@H]1[C@@H]2C(N)=O

>  <ASSAY TARGET>
Torsin-1A-interacting protein 2 (Homo sapiens) (UniProt Q8NFQ8)

>  <composite z-score>
1.66

$$$$
>  <COMPOUND>
N[C@@H](Cc1ccccc1)Cn1cc(C2(O)CCCCC2)nn1

>  <ASSAY TARGET>
Torsin-1A-interacting protein 2 (Homo sapiens) (UniProt Q8NFQ8)

>  <composite z-score>
0.205

$$$$
>  <COMPOUND>
Cc1c(NC(=O)/C(C#N)=C/c2ccc(Cl)cc2)c(=O)n(-c2ccccc2)n1C

>  <ASSAY TARGET>
Torsin-1A-interacting protein 2 (Homo sapiens) (UniProt Q8NFQ8)

>  <composite z-score>
1.55

$$$$
>  <COMPOUND>
CN(C)CCCCNC(=O)[C@H]1C[C@H]2C(=O)NCC(=O)N2[C@H]1c1cccc(OCCO)c1

>  <ASSAY TARGET>
Torsin-1A-interacting protein 2 (Homo sapiens) (UniProt Q8NFQ8)

>  <composite z-score>
1.6

$$$$
>  <COMPOUND>
COc1cccc(C[C@H]2C[C@@H](CO[Si](C(C)C)(C(C)C)C(C)C)N3C(=O)[C@@]4(C(C)=O)O[C@@]23[C@@H]2C(=O)N(C)C(=O)[C@@H]24)c1

>  <ASSAY TARGET>
Torsin-1A-interacting protein 2 (Homo sapiens) (UniProt Q8NFQ8)

>  <composite z-score>
0.189

$$$$

----------
- ASSAY NAME: basal 3T3-L1 adipocyte mitochondrial potential changes, profiling panel, cell-based, JC-1 fluorescence, 3T3-L1 adipocytes, 24 h, 100 nL compound (AID 1168); also: test concentration not given here
- MEASUREMENT PARAMETERS: JC-1 mitochondrial fluorescence, higher = more signal, called active from +8 up or from −8 down
Activity calls are given as the source filed them.
PROPERTY LABEL: z-score

>  <COMPOUND>
COC(=O)[C@@H]1N=C(c2ccc(OCCCO)cc2)O[C@@H]1c1ccccc1CN=[N+]=[N-]

>  <OBSERVED>
1.43 (inactive)

$$$$
>  <COMPOUND>
CC(=O)NCCCC[C@@H]1NC(=O)[C@@H]2C[C@H](C(=O)NCCCCCC[N+](C)(C)C)[C@H](c3ccc(O)cc3)N2C1=O

>  <OBSERVED>
0.164 (inactive)

$$$$
>  <COMPOUND>
CC(C)C[C@@H]1NC(=O)[C@@H]2C[C@H](C(=O)NCCCC[N+](C)(C)C)[C@H](c3ccc(O)cc3)N2C1=O

>  <OBSERVED>
-0.341 (inactive)

$$$$
>  <COMPOUND>
CCCCCCCCCCC(O)C1C=CC2C(=O)N(C)C(=O)C2N1N1CCCCC1 (stereo not given)

>  <OBSERVED>
-1 (inactive)

$$$$
>  <COMPOUND>
CN(C)C(=O)[C@@]1(CCS(=O)(=O)c2ccccc2)N=C(c2ccc(OCCCO)cc2)O[C@H]1c1ccccc1N=[N+]=[N-]

>  <OBSERVED>
-0.477 (inactive)

$$$$

----------
- ASSAY NAME: binders of probe aFGF10 on microarray, primary screen, stem cell growth factor project, biochemical, small-molecule microarray, fluorescence 635/667 (AID 1071);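 also: score merges 667 nm spot intensity and signal to noise from triplicate slides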
- MEASUREMENT PARAMETERS: higher = more signal

>  <MOLECULE>
C=CCOC(=O)[C@H]1[C@@H]2C(=O)O[C@@H](c3ccccc3)[C@@H](c3ccccc3)N2[C@@H](c2ccc(OCCOC(=O)[C@@H]3C[C@@H]4C(=O)N[C@@H](Cc5ccccc5)C(=O)N4[C@@H]3c3ccc(O)cc3)cc2)[C@]12C(=O)Nc1ccccc12

>  <composite z-score>
0.278

$$$$
>  <MOLECULE>
Cc1ccc(F)cc1S(=O)(=O)N[C@@H]1CCN(Cc2ccc3c(c2)OCO3)C1

>  <composite z-score>
-0.0066

$$$$
>  <MOLECULE>
COc1ccc(CCNC(=O)[C@@]2(Sc3ccc(C)cc3)CC(=O)N(Cc3cc(C(F)(F)F)cc(C(F)(F)F)c3)[C@@H]2c2ccc(CO)cc2)cc1

>  <composite z-score>
-0.498

$$$$
>  <MOLECULE>
COC(=O)[C@@]1(CCS(=O)(=O)c2ccccc2)N=C(c2ccc(OCCCO)cc2)O[C@H]1c1ccccc1N=[N+]=[N-]

>  <composite z-score>
0.207

$$$$
>  <MOLECULE>
CCOC(=O)C1=CC[C@@H](c2ccc(F)cc2)N(S(=O)(=O)c2ccc(C)cc2)[C@H]1c1ccc([N+](=O)[O-])cc1

>  <composite z-score>
0.639

$$$$
>  <MOLECULE>
CC(C)CNC(=O)[C@@H]1c2ccccc2C(=O)N(Cc2ccccc2Cl)[C@H]1c1ccc(CO)cc1

>  <composite z-score>
-0.833

$$$$
>  <MOLECULE>
CCOC(=O)C1=CC[C@@H](c2ccccc2)N(S(=O)(=O)C[Si](C)(C)C)[C@H]1c1ccccc1

>  <composite z-score>
0.389

$$$$
>  <MOLECULE>
CCCC[C@@H]1C[C@H]1[C@@H](NC(=O)Cc1ccccc1)c1ccc(Cl)cc1

>  <composite z-score>
0.671

$$$$
>  <MOLECULE>
COc1ccc(NC(=O)O[C@H]2[C@H](OC(=O)Nc3ccc4c(c3)OCO4)[C@H](OC(=O)Nc3ccc4c(c3)OCO4)[C@@H](OC)O[C@@H]2CO)cc1

>  <composite z-score>
0.739

$$$$
>  <MOLECULE>
C=CCC(OC(C)=O)[C@@H]1[C@@H](N(Cc2cccc3ccccc23)C(=O)c2cccc3ccccc23)c2cc(OCCCO)ccc2N1C(=O)Cc1ccc2ccccc2c1 (stereo partly drawn)

>  <composite z-score>
0.19

$$$$
>  <MOLECULE>
CN1C(=O)C2C(C1=O)C1C=C(c3ccc(CO)cc3)C2C(c2cccs2)N1C (stereo not drawn)

>  <composite z-score>
0.0934

$$$$
>  <MOLECULE>
COC(=O)[C@@]1(Cc2ccc(OC)cc2)[C@@H]2[C@@H](CC(=O)[C@H]2CC(=O)C(=O)N2CCCC2)CN1C(=O)c1ccccc1

>  <composite z-score>
0.884

$$$$
>  <MOLECULE>
[N-]=[N+]=NCc1ccccc1C[C@]1(C(=O)O)COC(c2ccc(OCCCO)cc2)=N1

>  <composite z-score>
-0.461

$$$$
